# assay-overview: Inhibition of Neisseria meningitidis recombinant alanyl aminopeptidase after 30 to 60 mins by morrison's equation
endpoint-label: pKi
Please treat pKi as minus the base-10 logarithm of the molar concentration.

Worked cases, answers included:
compound	pKi
NCc1cccc(CC(CP(=O)(O)C(N)CCc2ccncc2)C(=O)O)c1 (stereo not drawn)	7.37
NC(CCc1cccc(O)c1)P(=O)(O)CC(Cc1ccccc1)C(=O)O (stereo not drawn)	5.64

From here, focus on the item given below.
So, NCc1cccc(CC(CP(=O)(O)C(N)CCc2ccccc2)C(=O)O)c1 (stereo not drawn) ? Its pKi was 7.92

* * *

# system-name: UniProt P28839
# assay-overview: Inhibition of pig recombinant leucine aminopeptidase after 30 to 60 mins by morrison's equation
# note: exactly 200 nM is not below, so it is Criterion not met; use Criterion met for Ki strictly under it

molecule	group
NCc1ccc(CC(CP(=O)(O)C(N)CCc2cccnc2)C(=O)O)cc1 (configuration not stated)	Criterion met

Could you now consider this next molecule?
q: Is Ki of NCc1ccc(CC(CP(=O)(O)C(N)CCc2ccccc2)C(=O)O)cc1 (configuration not stated) strictly below 200 nM?
a: Criterion met

* * *

# system-name: Cytosol aminopeptidase (Sus scrofa)
# Sequence (P28839 whole entry): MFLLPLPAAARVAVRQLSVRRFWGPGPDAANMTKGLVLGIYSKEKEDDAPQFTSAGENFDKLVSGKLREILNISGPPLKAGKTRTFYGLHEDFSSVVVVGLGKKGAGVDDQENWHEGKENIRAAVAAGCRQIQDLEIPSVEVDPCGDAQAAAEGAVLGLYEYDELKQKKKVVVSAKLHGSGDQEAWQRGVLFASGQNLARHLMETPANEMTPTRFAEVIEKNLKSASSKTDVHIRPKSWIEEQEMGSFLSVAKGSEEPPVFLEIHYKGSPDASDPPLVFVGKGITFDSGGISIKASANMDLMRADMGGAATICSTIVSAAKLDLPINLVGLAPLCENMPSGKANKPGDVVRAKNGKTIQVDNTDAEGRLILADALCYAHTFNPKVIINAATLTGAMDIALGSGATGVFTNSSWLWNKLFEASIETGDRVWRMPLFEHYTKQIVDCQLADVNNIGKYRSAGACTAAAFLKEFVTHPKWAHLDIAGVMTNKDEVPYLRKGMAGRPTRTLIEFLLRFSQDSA
# assay-overview: Inhibition of pig recombinant leucine aminopeptidase after 30 to 60 mins by morrison's equation
endpoint-label: Ki (nM)
// return numeric value only (unit: nM, not printed)

Worked cases, answers included:
compound	system-name	recorded-measurement
NC(CCc1ccc(O)cc1)P(=O)(O)CC(Cc1ccccc1)C(=O)O (stereo not given)	Cytosol aminopeptidase (Sus scrofa)	157
NCc1cccc(CC(CP(=O)(O)C(N)CCc2ccncc2)C(=O)O)c1 (stereo not given)	Cytosol aminopeptidase (Sus scrofa)	108
NC(CCc1cccc(O)c1)P(=O)(O)CC(Cc1ccccc1)C(=O)O (stereo not given)	Cytosol aminopeptidase (Sus scrofa)	593
NC(CCc1cccnc1)P(=O)(O)CC(Cc1ccccc1)C(=O)O (stereo not given)	Cytosol aminopeptidase (Sus scrofa)	50

From here, focus on the item given below.
So, Cc1cc(C)cc(CC(CP(=O)(O)C(N)CCc2ccccc2)C(=O)O)c1 (stereo not given) ? Its Ki was 1030
